- test-system: NADPH oxidase 4 (Homo sapiens)
- protocol-text: NOX4-dependent H2O2 signal modulators, primary screen, NOX inhibitor project, cell-based, HEK293-NOX4, tetracycline-induced, Amplex Red fluorescence (AID 1160)
- test-parameters: 45 min, higher = more signal, called active from +8 up or from −8 down
readout-name: z-score
Enter the number alone.

# count of solved cases: 3
What value of z-score has been recorded for this entry: "COc1ccc([Si](C)(C)[C@H]2[C@H](CCO)O[C@@]3(C(=O)N(Cc4ccc(N(C=O)c5ccccc5)cc4)c4ccccc43)[C@@H]2C)cc1" 0.859

Given the compound C=C(C)[C@@H]1CC=C(C(O)C2C=CC3C(=O)N(C)C(=O)C3N2Nc2ccccc2)CC1 (stereo not given in full) , what is its reported z-score? -2.76

Need z-score of "CN(C)CCCCCCNC(=O)[C@H]1C[C@H]2C(=O)N[C@@H](CCCCN)C(=O)N2[C@H]1c1cccc(OCCO)c1" , thanks. 1.03

***
Bench note: what z-score did "C=CCNC(=O)[C@H]1[C@@H]2C(=O)O[C@@H](c3ccccc3)[C@@H](c3ccccc3)N2[C@@H](c2ccccc2OCCO)[C@]12C(=O)Nc1ccc(C#CCCO)cc12" show? -0.546

Consider the compound shown here: "C[N+](C)(C)CCCC[C@@H]1NC(=O)[C@H]2C[C@@H](C(=O)NCCCCCCNC(=O)CS)[C@@H](c3cccc(OCCO)c3)N2C1=O" What is its recorded z-score? 0.639
